Examples of compounds with documented activity change follow.
Tested on: Potassium voltage-gated channel subfamily H member 2, brain isoform KCNH2 3.1 (human)
Assay: qHTS for Inhibitors of KCHN2 3.1: Mutant qHTS; note: % is set by controls: 0 for no effect and ±100 for the full control effect
Details: U2OS KCNH2 3.1, thallium flux FluxOr; stronger effect = lower value
Description: Many antipsychotic drugs that inhibit the neurotransmitter dopamine also bind to hERG1 channel which might help explain their antipsychotic activity but also produces cardiac side effects. […] U2OS cells were resuspended in cell media containing 10% fetal calf serum (FCS) at a concentration of 2 million cells / mL. […] A stimulation buffer was added to the plate and the second kinetic read (2 min) was obtained. […]
About 3,300 (0.97%) of roughly 340,000 compounds were called active. Only a selection was taken, and actives are over-represented in it overall.

| chemicalSmiles | activity change [%] |
| --- | --- |
| O=C(CSc1ncn[nH]1)Nc1nc2c(F)c(F)c(F)cc2s1 | -9.38 |
| CCOC(=O)c1c(NC(=S)SC)sc(C(=O)N2CCc3ccccc3C2)c1C | -4.73 |
| Cc1ccccc1C#CC1=CC(=O)CC(C)(C)C1 | -7.29 |
| O[C@H]1C[C@H](c2ccc(Cl)cc2)N(Cc2cccs2)C[C@@H]1n1cc(C2CC2)nn1 | 8.43 |
| COc1ccc(S(=O)(=O)N2CCC(C(=O)NCCC(=O)NCCc3cccc(F)c3)CC2)cc1 | -0.519 |
| N#CCCN(C(=S)Nc1ccc(Cl)c(Cl)c1)C1CCCCC1 | -7.86 |
| Cc1cccc(N2CCC(NCc3c(C(=O)N4CCCCC4)nc4c(C)cccn34)CC2)c1 | -70.6 |
| O=C(NCc1nnnn1-c1ccc(Cl)cc1)c1ccc([N+](=O)[O-])o1 | -3.24 |
| Cc1ccc(NC(=O)CN(C)C(=O)c2cccc(S(=O)(=O)N3CCCC3)c2)cc1 | 4.37 |
| COc1ccc(S(=O)(=O)N2CCN(CC(=O)N3CCNC3=O)CC2)cc1OC | 12.9 |

* * *

test system: Potassium voltage-gated channel subfamily H member 2, brain isoform KCNH2 3.1 (human); experiment: qHTS for Inhibitors of KCHN2 3.1: Mutant qHTS; conditions: U2OS KCNH2 3.1, thallium flux FluxOr; note: % is set by controls: 0 for no effect and ±100 for the full control effect
The whole screen tested about 340,000 compounds, of which about 3,300 (0.97%) were called active.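 How the source made its calls: active means maximum activity change below -70%; inconclusive means maximum activity change from -70% to -50%; inactive means maximum activity change above -50%.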 For the sample, actives were picked, then their nearest neighbours and some compounds at random.
Outcome codes: active, inactive

| compound | classification |
| --- | --- |
| CC(C)Oc1ccc(CCc2nnc(SCC(=O)O)n2-c2ccccc2)cc1 | active |
| O=C(CN1CCN(C/C=C/c2ccccc2)CC1)Nc1ccc(F)cc1F | active |
| Cc1ccc([C@H]2C[C@H](O)[C@@H](n3cc(COC(=O)c4ccccc4)nn3)CN2CC2CCCCC2)cc1 | inactive |
| O=C(NCCS(=O)(=O)N1CCN(c2ccccc2)CC1)c1cc(=O)c2ccccc2o1 | inactive |
| CC(=O)c1ccc(NC(=O)N[C@@H](Cc2ccccc2)C(=O)O)cc1 | inactive |
| O=C(CCN1C(=O)c2ccccc2C1=O)Nc1cccc(F)c1 | inactive |
| O=C(CN1CCN(C(=O)c2cccc(F)c2)CC1)Nc1ccccc1F | inactive |
| C/C(COc1ccccc1)=N\NC(=O)c1nnn(-c2nonc2N)c1-c1ccc(C)cc1 | inactive |
| CCN(CC)CCN(C(=O)c1ccc2c(c1)CCCC2)c1nc2c(OC)cccc2s1 | inactive |
| CCOc1ccc(C2c3[nH]c4ccccc4c3CCN2Cc2cccn2-c2ncccn2)cc1 (stereo unspecified) | active |
| O=C(CN1CCCCCC1)Nc1ccc(Cl)cc1F | inactive |
| CCOC(=O)c1c(C)[nH]c(C)c1C(=O)COC(=O)/C=C/c1cccc([N+](=O)[O-])c1 | inactive |
| COCOCCn1cc(CN2CCS(=O)(=O)N(Cc3ccc(-c4ccccc4)cc3)C(CC(C)C)C2=O)nn1 (stereo unspecified) | inactive |
| CCOc1ccc(C2c3[nH]c4ccccc4c3CCN2Cc2cn(CC)nc2C)cc1 (stereo unspecified) | inactive |
| C[C@H](NC(=O)c1nc[nH]c1C(=O)NCC(=O)OC(C)(C)C)C(=O)OCc1ccccc1 | active |
| Cc1cc(Cl)ccc1C(=O)C1CCCN(C(=O)c2ccc3c(c2)OCO3)C1 (stereo unspecified) | inactive |
| N#Cc1ccc(C2=CC(=O)C[C@H](c3ccc(Cl)cc3)C2)cc1 | active |
| CCc1cc(-c2nnn(CCC3COCCO3)c2CC)ccc1-c1cn(Cc2ccc3ccccc3c2)nn1 (stereo unspecified) | inactive |
| Cc1ccc(-c2ccc(C3=CC(=O)CC(C)(C)C3=O)cc2)cc1 | inactive |
| Cc1nc2nc[nH]n2c(=O)c1NC(=O)c1cccc(OCC(C)C)c1 | active |
| c1ccc(C2c3[nH]c4ccccc4c3CCN2Cc2cccn2-c2cccnc2)nc1 (stereo unspecified) | inactive |
| Cc1cccc(NC(=O)N(Cc2cc3cc(C)cc(C)c3[nH]c2=O)CC2COCCO2)c1 (stereo unspecified) | inactive |
| COc1ccc([C@H]2CC(=O)C=C(c3ccc(CO)cc3)C2)cc1 | inactive |
| Cc1nc2nc[nH]n2c(=O)c1C/C=C/c1ccccc1 | inactive |
| Cc1onc(-c2ccccc2)c1-c1nnc(COC(=O)c2ccc(N(C)C)cc2)o1 | inactive |
| Cc1ccc2[nH]c(=O)c(CN(CC3COCCO3)C(=O)Nc3ccccc3C)cc2c1 (stereo unspecified) | active |
| CC(C)(C)OC(=O)CNC(=O)c1[nH]cnc1C(=O)N[C@@H](Cc1ccccc1)C(=O)OCc1ccccc1 | inactive |
| Cc1noc(C)c1COc1cccc(C(=O)Nc2cccnc2)c1 | inactive |
| O=C(C[C@H]1C[C@H]2c3cc(NS(=O)(=O)c4ccc(F)cc4)ccc3O[C@H]2[C@H](CO)O1)NCc1cc(F)ccc1F | inactive |
| CN(C)C(CNC(=O)c1cccc(S(=O)(=O)N2CCc3ccccc3C2)c1)c1ccccc1 (stereo unspecified) | inactive |
| C=CCn1nc(C(=O)OCC)cc1-c1sc(NC(=O)c2ccccc2)nc1C | inactive |
| COc1ccc(C(CNC(=O)c2ccc(OCc3cscn3)cc2)N2CCCC2)cc1 (stereo unspecified) | inactive |
| COc1ccc(-n2c(-c3ccc(Cl)cc3)n[nH]c2=S)c(OC)c1 | inactive |
| C[C@H]1CN([C@@H](C)CO)S(=O)(=O)c2ccc(Br)cc2O[C@H]1CN(C)C(=O)c1cnccn1 | inactive |
| O=C(CCN1CCN(C/C=C/c2ccccc2)CC1)Nc1ccccc1Cl | active |
| CC(=O)c1ccc(NC(=S)N(Cc2ccccc2)C(C)C2CC2)cc1 (stereo unspecified) | active |
| Cc1ccc(C(=O)N2CCCc3ccccc32)c(Cl)c1 | inactive |
| CCN(CC)C(=O)C1=C(C)N(Cc2ccc(F)cc2)C(=O)C(CC(=O)NC2CCCC2)C1 (stereo unspecified) | inactive |
| COc1ccccc1NC(=O)CCN1CCN(c2ccc(Cl)cc2)CC1 | inactive |
| CC(C)c1cc(C(=O)NC2CCCCCC2)c2ccccc2n1 | inactive |
| CC1CCN(C(=O)CSc2nnc(-c3ccco3)n2N)CC1 | inactive |

* * *

tested on: Potassium voltage-gated channel subfamily H member 2, brain isoform KCNH2 3.1 (human); assay: qHTS for Inhibitors of KCHN2 3.1: Mutant qHTS; conditions: U2OS KCNH2 3.1, thallium flux FluxOr; stronger effect = lower value; note: % is set by controls: 0 for no effect and ±100 for the full control effect
In all, about 340,000 compounds went through this assay and about 3,300 (0.97%) were called active. The full list was thinned out, with actives kept by preference.
Examples of molecules with documented activity change follow.
parameter: activity change (%)

| molecule | measurementUnit | quantitativeReadout |
| --- | --- | --- |
| C[C@@H]1CCCCO[C@H](CN(C)Cc2ccccc2)[C@@H](C)CN([C@H](C)CO)C(=O)c2cc(NS(=O)(=O)c3ccc(Cl)cc3)ccc2O1 | % | -12 |
| CCOC(=O)c1c(NC(=O)COC(=O)c2ccc(S(=O)(=O)C(F)F)cc2)sc(C(=O)N(C)C)c1C | % | -12.2 |
| Cc1csc(=O)n1CCC(=O)OCC(=O)Nc1ccc(N2CCOCC2)cc1 | % | 26.4 |
| CC(=O)c1ccc(OCC(=O)N(C)C2CCS(=O)(=O)C2)cc1 (centres undefined) | % | -6.59 |

* * *

tested on: Potassium voltage-gated channel subfamily H member 2, brain isoform KCNH2 3.1 (human); assay: qHTS for Inhibitors of KCHN2 3.1: Mutant qHTS; conditions: U2OS KCNH2 3.1, thallium flux FluxOr; stronger effect = lower value; note: % is set by controls: 0 for no effect and ±100 for the full control effect
Among all 340,000 compounds or so, about 3,300 (0.97%) were called active. This excerpt belongs to a sample that is enriched for actives.
Examples of compounds with documented activity change follow.

| compound | activity change |
| --- | --- |
| COc1cc(C(=O)N2CCOC23CCN(Cc2ccccc2)CC3)cc(OC)c1OC | -5.15% (inactive) |
| CC(OC(=O)c1ccc(NC(=O)CC#N)cc1)C(=O)Nc1ccc(S(=O)(=O)N2CCCC2)cc1 (stereo not given) | 8.99% (inactive) |
| COc1ccc(NC(=O)CN(C)C(=O)c2cc(C)oc2C)cc1 | -19.2% (inactive) |
| N#CCSc1ccccc1NC(=O)CN1C(=O)NC(CCc2ccccc2)C1=O (stereo not given) | 0.381% (inactive) |
| N=c1n(CCc2ccccc2)c2ccccc2n1Cc1ccccc1F | -48.9% (inactive) |
